Test system: HT-1080 (ATCC, CCL-121) cells
Experiment: HT-1080 cell viability assay with ferroptosis inducer RSL3 (Cell Titer-Glo)
Format: cell-based
Conditions: Homo sapiens; HT-1080 cells treated with RSL3; 3-fold, 10-point dilution, 1.1 μM highest concentration; Table 2; read-out: EC50 (nM), ferroptosis inhibitory activity
Measure name: EC50

Field: example entries. Status: answers known.
Compound | EC50
CC1CCN(c2ccc(Nc3ccc4ncn(C)c4c3)cc2)CC1 | 0.1 to 100 nM
CC1CN(c2ccc(Nc3ccc4nnn(C)c4c3)cc2)CC(C)O1 (centres unmarked) | 100 to 1000 nM
Cn1c(=O)c2ccc(Nc3ccc(N4CCC(C(F)(F)F)CC4)cc3)cc2n1C(=O)OC(C)(C)C | 100 to 1000 nM
Cn1c(=O)oc2cc(Nc3ccc(C4CCC(C)(C)CC4)cc3)ccc21 | 0.1 to 100 nM

Exercise: Query the reported EC50 for HT-1080 (ATCC, CCL-121) cells; item: "COc1c(Nc2ccc(N3CCC(C(F)(F)F)CC3)cc2)ccc2c1CN(C)C2=O"
Solution: 0.1 to 100 nM

Exercise: Ok, now "CN1C(=O)C(C)(C)c2cc(Nc3ccc(N4CCC(C(F)(F)F)CC4)cc3)ccc21"
Solution: 0.1 to 100 nM

Exercise: Ok, now "Cn1c(=O)n(C)c2cc(Nc3cnc(N4CCC(C(F)(F)F)CC4)c(F)c3)ccc21"
Solution: 0.1 to 100 nM

Exercise: Ok, now CC1CN(c2ccc(Nc3ccc4c(c3)OCC(=O)N4C)c(F)c2)CC(C)O1 (centres unmarked)
Solution: 0.1 to 100 nM
